Assign GI50 to each entry below.
# Tested on: UACC-257
# test_summary: NCI tumour cell line growth inhibition, 48 h
Calls of active or inactive are those of the source. Rule as the data show it: active = GI50 up to about 1.1 µM and inactive = higher.

Below, each entry is followed by its recorded GI50 result.
Please look up its GI50: CCOc1ccc(NC(=O)C(=O)Nn2c(N)nnc2N)cc1
> 100 µM (inactive)

// repeat for Cn1c(=O)nc2n(-c3ccc(O)cc3)c3ccccc3nc-2c1=O and report
> 100 µM (inactive)

What would you report for CN(C)CCNC(=O)c1cccc2[nH]c(-c3ccncc3)nc12 ?
1.83 µM (inactive)

Field entry: COc1ccccc1NC(=O)C1=C(C)NC(C)=C(C(=O)Nc2ccccc2OC)C1c1ccc(C2C(C(=O)Nc3ccccc3OC)=C(C)NC(C)=C2C(=O)Nc2ccccc2OC)cc1
2.33 µM (inactive)

Next:
Which GI50 is listed for O=C1C=CC(=O)c2c1ccc1c3ccccc3n(-c3cccc([N+](=O)[O-])c3)c21 ?
2.62 µM (inactive)

----------
Give measured GI50 for each item. Keep answers brief.
# System: SNB-19
# test_summary: NCI tumour cell line growth inhibition, 48 h
Active and inactive are the calls of the source. No stated cut-off is given here; in the data, active = GI50 up to about 1.1 µM and inactive = higher.

Respectfully, I request GI50 for each entry included below.
1. O=c1c(Br)c(-c2ccccc2)[s+]([O-])c2ccccc12 (stereo not given)
2. CCOC(=O)CCN1C(=O)c2ccc(NC(=O)C(=O)O)cc2S1(=O)=O

1. 18.2 µM (inactive)
2. > 100 µM (inactive)

----------
# Tested on: UACC-257
# test_summary: NCI tumour cell line growth inhibition, 48 h
Calls of active or inactive are those of the source. Cut-off read from the data, not from the text of the source: active = GI50 up to about 1.1 µM and inactive = higher.
measured_property: GI50

Consider the worked cases shown below.
Value lookup for GI50; key = C1CN2CCNCCN(CCN1)CC2
> 100 µM (inactive)

Subsequent entry: Nc1nc(N)c2ncn(-c3ccc(Br)cc3)c2n1
> 100 µM (inactive)

O=Cc1c(-c2ccccc2)nc2ccccc2c1O ?
72.8 µM (inactive)

Please give the result for O=c1cnn(C/C=C/CP(=O)(O)O)c(=O)[nH]1 too.
> 100 µM (inactive)

Kindly give each listed record's GI50.
1. COc1nc(Cl)nc(N[C@H](C)c2c3ccccc3cc3ccccc23)n1
2. CCCCCCCCCCNC1CC(OC2CC(O)(C(O)CO)Cc3c(O)c4c(c(O)c32)C(=O)c2c(OC)cccc2C4=O)OC(C)C1O (stereo not given)
3. Cc1sc2nc3n(c(=O)c2c1C)N=C(c1ccccc1)CS3
4. CN[C@H]1CC[C@]23C[C@]24CC[C@]2(C)[C@@H]([C@H](C)N(C)C)CC[C@@]2(C)[C@@H]4CC[C@H]3C1(C)C
5. CN(C(=O)/C=C/c1ccccc1)C1C2CN3CCC(O2)C13 (stereo not given)
6. CCc1cc(Cc2cc(CC)c(NC(=O)C3=CC(=O)CC(c4ccc(OC)cc4)O3)c(CC)c2Cl)c(Cl)c(CC)c1NC(=O)C1=CC(=O)CC(c2ccc(OC)cc2)O1 (stereo not given)
7. C=CCN1C(=O)C[C@H](Cc2ccccc2)NC(=O)C[C@H](Cc2ccccc2)N(CC=C)C(=O)C[C@H](Cc2ccccc2)NC(=O)C[C@@H]1Cc1ccccc1
8. O=C(CCBr)N1CCN(C(=O)CCBr)CC1

1. 16 µM (inactive)
2. 1.72 µM (inactive)
3. > 100 µM (inactive)
4. 15.1 µM (inactive)
5. > 100 µM (inactive)
6. 16 µM (inactive)
7. 6.97 µM (inactive)
8. 91 µM (inactive)

Report GI50 for every entry below.
1. COc1cc2c(cc1OC)C(=O)N(c1ccc(O)cc1)C2=O
2. CCOC(=O)C(C)OC(=O)c1ccc(C)cc1 (stereo not given)
3. COc1ccc(-n2c(N)c(C#N)c(C#N)c2-c2cccc([N+](=O)[O-])c2)cc1
4. CN1CCc2c(sc3ncn(Nc4ccc(F)cc4)c(=N)c23)C1
5. CC1OC(OC2C(O)C(O)C(O)C(O)C2O)C(N)CC1NC(=N)C(=O)O (stereo not given)
6. CCN1CCN(c2nc3ccccc3c3c2CCOc2ccccc2-3)CC1
7. CCCCC1(O)CC2CC1C(C)C2(C)C (stereo not given)

1. > 100 µM (inactive)
2. > 100 µM (inactive)
3. > 100 µM (inactive)
4. > 100 µM (inactive)
5. > 100 µM (inactive)
6. 18.1 µM (inactive)
7. > 100 µM (inactive)

Which GI50 is reported for this compound? O=C1CSC2(CC(/C=C/C=C/c3ccccc3)=NN2c2cccc(S(=O)(=O)O)c2)N1c1nc2ccccc2s1 (stereo not given)
40.6 µM (inactive)
